# system.under.test: human recombinant adrenergic α2A receptor (Homo sapiens, UniProt P08913)
# Construct: expressed in transfected cells; host or cells: insect Sf9 cells
# Sequence (P08913 1-465): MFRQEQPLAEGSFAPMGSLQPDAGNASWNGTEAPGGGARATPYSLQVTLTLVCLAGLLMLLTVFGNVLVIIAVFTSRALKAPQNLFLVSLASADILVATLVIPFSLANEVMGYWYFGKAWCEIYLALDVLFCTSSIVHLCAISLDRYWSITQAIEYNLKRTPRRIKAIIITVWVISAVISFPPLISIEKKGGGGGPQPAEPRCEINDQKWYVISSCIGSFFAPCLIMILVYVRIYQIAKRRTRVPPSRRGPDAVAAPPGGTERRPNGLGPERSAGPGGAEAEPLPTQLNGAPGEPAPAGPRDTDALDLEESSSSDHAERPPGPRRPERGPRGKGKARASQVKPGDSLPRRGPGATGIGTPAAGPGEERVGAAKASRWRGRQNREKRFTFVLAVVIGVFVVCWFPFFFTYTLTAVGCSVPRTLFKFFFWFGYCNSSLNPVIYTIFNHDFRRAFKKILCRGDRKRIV
# experiment.description: Radioligand binding, adrenergic α2A ([3H]MK-912)
# measurement.conditions: read-out: Percentage inhibition of ligand binding, Adrenergic α2A (0.1 μM), compound at 0.1 μM; [3H]MK-912; repeat datapoints each shown
parameter: inhibition at 0.1 µM (%)

1: Cc1ccc2c(c1)c1c(n2CC(N=[N+]=[N-])c2ccc(F)cc2)CCN2CCCC12 (stereo not shown)
2: CC(=O)Nc1ccc(/C(C)=C\n2c3c(c4cc(C)ccc42)CN(C)CC3)cn1
3: Cc1cnc2c(c1)c1c(n2CCc2cccnc2)CCN2CCCC12 (single isomer, unassigned) [134b]
4: Cc1ccc2c(c1)c1c(n2CC(C)(O)c2ccc(C)nc2)CCN2CCCC12 (single isomer, unassigned) [II-128b]
Problem: Ordering: ascending inhibition at 0.1 µM. Rank the items, then write their labels in that order.
Result: 2, 3, 4, 1

====

# system.under.test: human recombinant adrenergic α2B receptor (Homo sapiens, UniProt P18089)
# Construct: expressed in transfected cells; host or cells: CHO-K1
# Sequence (P18089 whole entry): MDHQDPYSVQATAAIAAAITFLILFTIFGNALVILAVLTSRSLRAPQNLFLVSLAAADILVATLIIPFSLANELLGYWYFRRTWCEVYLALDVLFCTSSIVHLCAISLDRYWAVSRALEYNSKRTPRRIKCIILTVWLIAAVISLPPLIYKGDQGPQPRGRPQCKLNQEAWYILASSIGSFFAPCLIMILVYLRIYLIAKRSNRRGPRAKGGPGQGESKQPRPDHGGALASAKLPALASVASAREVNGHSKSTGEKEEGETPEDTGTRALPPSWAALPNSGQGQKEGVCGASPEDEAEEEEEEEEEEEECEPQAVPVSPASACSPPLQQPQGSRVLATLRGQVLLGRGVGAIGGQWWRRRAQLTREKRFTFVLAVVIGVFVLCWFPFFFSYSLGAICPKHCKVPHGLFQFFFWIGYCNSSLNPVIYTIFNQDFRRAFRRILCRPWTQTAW
# experiment.description: Radioligand binding, adrenergic α2B ([3H]Rauwolscine)
# measurement.conditions: read-out: Percentage inhibition of ligand binding, Adrenergic α2B (0.1 μM), compound at 0.1 μM; [3H]Rauwolscine; repeat datapoints each shown
parameter: inhibition at 0.1 µM (%)

Use the examples below as a reference point.
INSERT INTO measurements (compound, system_under_test, parameter, unit_string, recorded_result) VALUES
  ('C/C(=C\n1c2c(c3cc(Cl)ccc31)CCN(C)CC2)c1ccccc1Cl [compound 235]', 'human recombinant adrenergic α2B receptor (Homo sapiens, UniProt P18089)', 'inhibition at 0.1 µM', '%', 96),
  ('Cc1ccc2c(c1)c1c(n2CCc2ccccc2F)CCN(C)C1 [compound 204]', 'human recombinant adrenergic α2B receptor (Homo sapiens, UniProt P18089)', 'inhibition at 0.1 µM', '%', 107),
  ('Cc1ccc2c(c1)c1c(n2C(C)C(O)c2ccncc2)CCN(C)C1 (single isomer, unassigned) [127a]', 'human recombinant adrenergic α2B receptor (Homo sapiens, UniProt P18089)', 'inhibition at 0.1 µM', '%', 74),
  ('C/C(=C\n1c2c(c3cc(C)ccc31)CN(C)CC2)c1cnn(C)c1 [compound 109]', 'human recombinant adrenergic α2B receptor (Homo sapiens, UniProt P18089)', 'inhibition at 0.1 µM', '%', 69),
  ('Cc1ccc(CCn2c3c(c4cc(C)ccc42)CN(C)CC3)cc1 [compound 180]', 'human recombinant adrenergic α2B receptor (Homo sapiens, UniProt P18089)', 'inhibition at 0.1 µM', '%', 99);

1: Cc1ccc2c(c1)c1c(n2CCc2ccc(CO)nc2)CCN(C)C1 [compound 91]
2: Cc1ccc(CCn2c3c(c4cccnc42)CN(C)CC3(C)C)cn1 [II-133]
3: Cc1cnc2c(c1)c1c(n2CCc2ccc(C)nc2)CCN(C)C1 [II-110]
Problem: Thanks in advance: please rank these 3 entries by inhibition at 0.1 µM, highest to lowest. Rank the items, then write their labels in that order.
Result: 1, 3, 2
(1: 87%, 3: 47%, 2: -5%)

I: C/C(=C\n1c2c(c3cc(C)ccc31)C1CCCN1CC2)c1ccc(C)nc1 (stereo not drawn) [compound 193]
II: Cc1ccc2c(c1)c1c(n2/C=C(\F)c2ccncc2)CCN(C)C1 [compound 105]
Problem: Looking only at measured inhibition at 0.1 µM, which entry is lower, I or II ? Reply briefly: the label of your chosen item.
Result: II
